This listing pairs sequences with measured protein stability index.
- System: Saccharomyces cerevisiae;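 note: PSI is a weighted mean of sequencing reads over stability bins, variants kept only with over 10 reads, mCherry proximal and sfGFP distal, peptide attached via GGGS linker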
- Test details: protein stability index of tFT-peptide fusion (C-terminal peptide) (PSI (0-1 scale)); higher = more stable (slower turnover)
- Conditions used: genetic background: wild type; temperature: 30 C

{"columns": ["Biopolymer sequence", "protein stability index"],
 "data": [
  ["DGGTSGGGVPVP", 0.637],
  ["HHSLLLPPPPPP", 0.673],
  ["SVVYCRMRVHFV", 0.285],
  ["LFPFPSPLPPPL", 0.766],
  ["PWGSHLYYVVCI", 0.339],
  ["HLLPRPIRPSTP", 0.664],
  ["DLYLETSCSIGG", 0.672],
  ["GSPAVACSSPFF", 0.754],
  ["LSVSLCWRHFFS", 0.693],
  ["WLNMKFRTLCGS", 0.634]
]}

Ref: the supplement of paper PMC10724198
